conditions: 303.15 K; 101 kPa
# viscosity per entry
The reply should be a number in mPa·s, with the unit left off.

See these solved cases before continuing.
{"COMPOUND": "CCOC(=O)C(Br)CC (stereo not given)", "VALUE_KIND": "viscosity", "READOUT_VALUE": 1.529}
{"COMPOUND": "COS(=O)(=O)[O-].Cn1cc[n+](C)c1", "VALUE_KIND": "viscosity", "READOUT_VALUE": 61.9}
{"COMPOUND": "O=C(Cl)c1ccccc1", "VALUE_KIND": "viscosity", "READOUT_VALUE": 1.244}
{"COMPOUND": "CCCCCCn1cc[n+](C)c1.[Cl][Fe-]([Cl])([Cl])[Cl]", "VALUE_KIND": "viscosity", "READOUT_VALUE": 47.89}

We now examine a further compound.
The reported value for `NCCNCCNCCN` in terms of viscosity is 25.41
